# NADH oxidase activity (Complex I, III, IV) % listing for each entry below
Test system: NADH oxidase (complexes I, III and IV)
Assay: NADH oxidase activity (complexes I, III and IV) in submitochondrial particles
Type: biochemical, bovine
Settings: 1 μM
Value Kind: NADH oxidase activity (Complex I, III, IV) % (%)

>>> numeric_readout("CCCCCCCCCCCCCC1=C(OC)C(=O)C=C(N(C)CCCC(=O)OCCCCCC)C1=O")
81
>>> numeric_readout("CCCCCCCCCCCCCC1=C(OC)C(=O)C=C(NCCCC(=O)OCc2ccccc2)C1=O")
67
>>> numeric_readout("CCCCCCCCCCCCCC1=C(O)C(=O)C=C(N(C)CCCC(=O)OCCCCCC)C1=O")
82
>>> numeric_readout("CCCCCCCCCCCCCC1=C(O)C(=O)C=C(NCCCCCC)C1=O")
67
>>> numeric_readout("CCCCCCCCCCCCCC1=C(OC)C(=O)C=C(N(C)C)C1=O")
70
>>> numeric_readout("CCCCCCCCCCCCCC1=C(O)C(=O)C=C(NCCCC(=O)O)C1=O")
77
>>> numeric_readout("CCCCCCCCCCCCCC1=C(OC)C(=O)C=C(NCCCC(=O)OCCCCCC)C1=O")
54
>>> numeric_readout("CCCCCCCCCCCCCC1=C(OC)C(=O)C=C(NCCCC(=O)OC(C)(C)C)C1=O")
84
>>> numeric_readout("CCCCCCCCCCCCCC1=C(OC)C(=O)C=C(NCCCCCC)C1=O")
74
>>> numeric_readout("CCCCCCCCCCCCCC1=C(O)C(=O)C=C(N(C)C)C1=O")
18
